testedOn: T1, rat ASIC1a (rASIC1a-eYFP) (Rattus norvegicus, UniProt P55926)
T1 construct: expressed in transfected cells; host or cells: CHO-K1 (transient)
T1 sequence (P55926 1-526): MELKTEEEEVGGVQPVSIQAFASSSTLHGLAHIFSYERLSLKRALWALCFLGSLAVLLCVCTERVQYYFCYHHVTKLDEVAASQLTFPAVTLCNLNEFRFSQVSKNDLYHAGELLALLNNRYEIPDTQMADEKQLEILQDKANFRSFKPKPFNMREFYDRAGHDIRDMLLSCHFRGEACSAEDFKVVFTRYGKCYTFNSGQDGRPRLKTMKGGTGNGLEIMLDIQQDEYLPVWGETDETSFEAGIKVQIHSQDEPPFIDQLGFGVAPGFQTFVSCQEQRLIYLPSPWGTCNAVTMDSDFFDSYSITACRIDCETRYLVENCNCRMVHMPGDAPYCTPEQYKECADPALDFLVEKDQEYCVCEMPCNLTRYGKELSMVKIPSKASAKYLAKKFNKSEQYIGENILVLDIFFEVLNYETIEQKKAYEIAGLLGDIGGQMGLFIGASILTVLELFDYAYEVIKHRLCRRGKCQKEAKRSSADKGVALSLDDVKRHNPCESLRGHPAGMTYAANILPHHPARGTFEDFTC
protocolDescription: FACS-based binding assay, transiently transfected CHO-K1 cells (species selectivity)
reportedConditions: double positive population

molecule	binding to cells expressing rASIC1a-eYFP
ASC06-03-IgG1: affinity-matured ASC06 derivative, VH-CDR3 DSFYGRAKGS (SEQ ID NO: 15) (antibody, V domains shown) VH: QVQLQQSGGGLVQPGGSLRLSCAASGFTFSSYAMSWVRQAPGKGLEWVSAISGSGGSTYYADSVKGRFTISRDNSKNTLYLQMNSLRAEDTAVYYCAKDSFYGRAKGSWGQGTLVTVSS VL: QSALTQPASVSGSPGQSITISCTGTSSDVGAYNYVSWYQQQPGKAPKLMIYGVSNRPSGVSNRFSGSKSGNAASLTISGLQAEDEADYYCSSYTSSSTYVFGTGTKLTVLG	bound
ASC06-04-IgG1: affinity-matured ASC06 derivative, VH-CDR3 DSFYGRAKGV (SEQ ID NO: 17) (antibody, V domains shown) VH: QVQLQQSGGGLVQPGGSLRLSCAASGFTFSSYAMSWVRQAPGKGLEWVSAISGSGGSTYYADSVKGRFTISRDNSKNTLYLQMNSLRAEDTAVYYCAKDSFYGRAKGVWGQGTLVTVSS VL: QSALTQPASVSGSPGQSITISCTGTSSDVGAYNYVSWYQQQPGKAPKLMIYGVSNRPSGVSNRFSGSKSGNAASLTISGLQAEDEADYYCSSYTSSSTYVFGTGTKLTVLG	bound
ASC06-01-IgG1: affinity-matured ASC06 derivative, VH-CDR3 DSYFGYSKGD (SEQ ID NO: 11) (antibody, V domains shown) VH: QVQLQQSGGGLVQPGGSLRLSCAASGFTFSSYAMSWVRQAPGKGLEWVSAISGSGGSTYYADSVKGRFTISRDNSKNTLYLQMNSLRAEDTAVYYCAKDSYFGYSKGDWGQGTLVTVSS VL: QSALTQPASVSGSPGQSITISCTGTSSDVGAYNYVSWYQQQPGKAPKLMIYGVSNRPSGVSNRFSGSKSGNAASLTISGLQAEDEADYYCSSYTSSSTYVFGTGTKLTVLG	bound
